Source of measurements: a melting point compilation (Tetko et al.; mined from patent text by program, amines drawn as free bases though some values may be those of a salt)

Experimental endpoint: melting point

Entry COC(=O)c1cccc2oc(CBr)nc12 — recorded melting point = 110 to 113 °C

Entry O=C(O)c1ccc(S(=O)(=O)CCO)c([N+](=O)[O-])c1 — recorded melting point = 190 to 192 °C

====

# reported melting point; entries follow

Solved cases (5 shown):
[
  {
    "Compound": "COC(=O)[C@@H](Cc1ccccc1)Nc1cc(-c2ccc(OCc3ccccc3)cc2)ncn1",
    "melting point": "150 °C"
  },
  {
    "Compound": "O=[N+]([O-])c1cc(C(c2ccc(NCc3ccccc3)c([N+](=O)[O-])c2)(C(F)(F)F)C(F)(F)F)ccc1NCc1ccccc1",
    "melting point": "168 to 172 °C"
  },
  {
    "Compound": "CCCN(CCC)CCCC1CCN(CCNC(=O)N2c3ccccc3C(=O)Nc3cccnc32)CC1",
    "melting point": "169 to 170 °C"
  },
  {
    "Compound": "CC(=O)OCC(C)C1CCC2C3CC=C4CC(O)CCC4(C)C3CCC12C (stereo unspecified)",
    "melting point": "143 °C"
  },
  {
    "Compound": "CC(C)(C)OC(=O)NC1CCCCc2cc(OCC3CCCCC3)c(Br)cc21 (stereo unspecified)",
    "melting point": "142 to 144 °C"
  }
]

Entry CCOc1csc2c(=O)c(SC)cn(C)c12 — recorded melting point = 214 to 217 °C

Entry Cc1cc(-n2cncn2)cc(C#N)c1N — recorded melting point = 231 to 233 °C

Entry CNC(=O)/C(=N/OC)c1ccccc1COc1ccc(C(F)(F)F)c(NC)n1 — recorded melting point = 66 to 67 °C

Entry O=C(CNC(=O)c1ccccc1)c1ccccc1 — recorded melting point = 114 to 120 °C

Entry O=c1[nH]c(=O)c2ccc(C(c3ccccc3)n3ccnc3)cc2[nH]1 (stereo unspecified) — recorded melting point = 287 °C

Entry COC(=O)c1ccc(OCCNC(=O)C2Cc3ccccc3N2S(=O)(=O)c2ccc(-c3ccc(F)cc3)cc2)cc1F (stereo unspecified) — recorded melting point = 77 to 81 °C

Entry Cc1[nH]n(C(C)(C)C)c2nc(Cc3ccccc3)nc(=O)c1-2 — recorded melting point = 196 to 197 °C

Entry Brc1cn(C(c2ccccc2)(c2ccccc2)c2ccccc2)nc1-c1ccccc1 — recorded melting point = 181 to 183 °C

Entry O=c1cc(Oc2ccc([N+](=O)[O-])cc2)cc[nH]1 — recorded melting point = 227 to 228 °C

Entry CCn1cc(C(=O)O)c(=O)c2cc(F)c(N3CCNCC3)c(F)c21 — recorded melting point = 234 to 236 °C

Entry O=C(O)C(F)Oc1ccccc1 (stereo unspecified) — recorded melting point = 61 to 63 °C

Entry O=C1NCCSc2sccc21 — recorded melting point = 157 to 158 °C

Entry NC(=NO)c1ccccc1N — recorded melting point = 85 to 86 °C

Entry Cc1ccc2c(c1)C(CCCCOS(C)(=O)=O)C(=O)N2 (stereo unspecified) — recorded melting point = 89 to 90 °C

Entry COC(C(C)C)C(C)(C)C(=O)Nc1ccc(Cl)cc1 (stereo unspecified) — recorded melting point = 103 to 107 °C

Entry COc1ccc(C(=O)c2nccs2)cc1OCc1ccc2ccccc2c1 — recorded melting point = 80 °C
